Assay: GPC assay of active ingredients (repellent tracers) in EVA collars at T0 after injection and after 7 days of stability at 50° C.
Type: physicochemical
Settings: collars (C2), EVA, 5.5% coconut and 5.6% repellents; at T = 7 days at 50° C.
Collected Active ingredient loss (%) values appear next to each entry.
// return numeric value only (unit: %, not printed)

Example entries begin here.
CC(C)=CCC/C(C)=C/CO [Geraniol, geraniol] ... 0
CC(C)=CCCC(C)CCO (centres unmarked) [Citronellol] ... 0
CC12CCC(CC1)C(C)(C)O2 [Cineole] ... 0
CC(C)=CCCC(C)CC=O (centres unmarked) [Citronellal] ... 3

Indicate the recorded Active ingredient loss (%) value for this compound: CC(C)=C1CC[C@@H](C)CC1=O [Pulegone]
0

----------
Assay: GPC assay of active ingredients (repellent tracers) in EVA collars at T0 after injection and after 7 days of stability at 50° C.
Assay type: physicochemical
Conditions: collars (C2), EVA, 5.5% coconut and 5.6% repellents; at T0 after injection
experimental_readout: Active ingredient loss (%)

Example entries begin here.
CC(C)=CCCC(C)CC=O (centres unmarked) [Citronellal] ... 0%
CC(C)=CCCC(C)CCO (centres unmarked) [Citronellol] ... 3%

Indicate the recorded Active ingredient loss (%) value for this compound: CC12CCC(CC1)C(C)(C)O2 [Cineole]
0%

Indicate the recorded Active ingredient loss (%) value for this compound: CC(C)=C1CC[C@@H](C)CC1=O [Pulegone]
0%

Indicate the recorded Active ingredient loss (%) value for this compound: CC(C)=CCC/C(C)=C/CO [Geraniol, geraniol]
0%

----------
Test: GPC assay of active ingredients (repellent tracers) in EVA collars at T0 after injection and after 7 days of stability at 50° C.
Format: physicochemical
Details: collars (C1), EVA, 5.5% Vitamin F and 5.6% repellents; at T0 after injection
experimental_readout: Active ingredient loss (%)

Indicate the recorded Active ingredient loss (%) value for this molecule: `CC(C)=C1CC[C@@H](C)CC1=O`
11%

----------
Assay: GPC assay of active ingredients (repellent tracers) in EVA collars at T0 after injection and after 7 days of stability at 50° C.
Assay type: physicochemical
Details: collars (C1), EVA, 5.5% Vitamin F and 5.6% repellents; at T = 7 days at 50° C., watertight-sealed packaging
Collected Active ingredient loss (%) values appear next to each entry.
// return numeric value only (unit: %, not printed)

Example entries begin here.
CC12CCC(CC1)C(C)(C)O2 [Cineole] ... 4
CC(C)=CCC/C(C)=C/CO [Geraniol, geraniol] ... 30
CC(C)=CCCC(C)CCO (centres unmarked) [Citronellol] ... 20
CC(C)=CCCC(C)CC=O (centres unmarked) [Citronellal] ... 38

Next:
Indicate the recorded Active ingredient loss (%) value for this molecule: CC(C)=C1CC[C@@H](C)CC1=O [Pulegone]
10

----------
Experiment: GPC assay of active ingredients (repellent tracers) in EVA collars at T0 after injection and after 7 days of stability at 50° C.
Format: physicochemical
Conditions: collars (C1), EVA, 5.5% Vitamin F and 5.6% repellents; at T0 after injection
Collected Active ingredient loss (%) values appear next to each entry.
// return numeric value only (unit: %, not printed)

CC(C)=CCC/C(C)=C/CO ... 6
CC(C)=CCCC(C)CC=O (stereo not shown) ... 12

Indicate the recorded Active ingredient loss (%) value for this compound: `CC12CCC(CC1)C(C)(C)O2`
12

Indicate the recorded Active ingredient loss (%) value for this compound: CC(C)=CCCC(C)CCO (stereo not shown)
7
